Experiment: Oral bioavailability: plasma levels after i.v. and p.o. dosing (LC-MS/MS)
Type: in vivo
Conditions: mouse, po, 50 mg/kg, read-out: AUC, plasma, p.o.
QUANTITY: AUC (µM·h)
Enter your answer as a number in µM·h; do not include the unit.

Requested read-out: AUC. Entry: O=C(O)C1(O)CSC(O)(C(=O)O)CS1 (stereo not shown) [sulfanegen]
24.6

----------
Experiment: Brain permeability: brain and plasma levels after i.p. dosing (LC-MS/MS)
Assay type: in vivo, mouse
Details: mouse, brain/plasma, intraperitoneal; 50 mg/kg i.p.; read-out: B/P Ratio (Brain-Plasma ratio)
Protocol: To ascertain the distribution of sulfanegen to the brain, plasma and brain samples were harvested from intraperitoneally treated animal groups and analyzed via LC-MS/MS. A saline solution of sulfanegen was injected into the mouse peritoneum at a dose of 50 mg/kg. Specifically, samples were collected at 0.25, 0.5, 1, 2, and 4 h after the drug administration. […] Samples were immediately centrifuged at 3000 rpm for 10 min at 4° C., and the separated top plasma layer was transferred into a new tube. […]
QUANTITY: Kp
Output: the number by itself.

Requested read-out: Kp. Entry: O=C(O)C1(O)CSC(O)(C(=O)O)CS1 (stereo not shown) [sulfanegen]
0.751

----------
Test: Oral bioavailability: plasma levels after i.v. and p.o. dosing (LC-MS/MS)
Format: in vivo
Details: mouse, iv, 10 mg/kg, read-out: AUC, plasma, i.v.
QUANTITY: AUC (µM·h)
Enter your answer as a number in µM·h; do not include the unit.

Requested read-out: AUC. Entry: O=C(O)C1(O)CSC(O)(C(=O)O)CS1 (stereo not shown) [sulfanegen]
32.6

----------
Assay: Brain permeability: brain and plasma levels after i.p. dosing (LC-MS/MS)
Type: in vivo, mouse
Settings: mouse, plasma, ip; 50 mg/kg i.p., samples 0.25-4 h
Experimental: To ascertain the distribution of sulfanegen to the brain, plasma and brain samples were harvested from intraperitoneally treated animal groups and analyzed via LC-MS/MS. A saline solution of sulfanegen was injected into the mouse peritoneum at a dose of 50 mg/kg. Specifically, samples were collected at 0.25, 0.5, 1, 2, and 4 h after the drug administration. […] Samples were immediately centrifuged at 3000 rpm for 10 min at 4° C., and the separated top plasma layer was transferred into a new tube. […]
QUANTITY: AUC (µM·h)
Enter your answer as a number in µM·h; do not include the unit.

Requested read-out: AUC. Entry: O=C(O)C1(O)CSC(O)(C(=O)O)CS1 (stereo not shown)
68.6
